Below, each of the variants is paired with its reported abundance fitness value.
B1: WW domain-containing transcription regulator protein 1, residues 116 to 162; numbered along this chain, Q9GZV5 (parent)
chain: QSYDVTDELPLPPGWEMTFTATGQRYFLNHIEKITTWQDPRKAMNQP

Variants of: B1
Assay: abundance fitness (aPCA) (normalised: wild type 0, dead -1); higher = more abundant; growth selection in yeast, the domain comes from the species named
Conditions: Homo sapiens
The response must contain the number and no unit.

P12Y = -0.61

Form field abundance fitness, entry "L9T" : 0.117

Form field abundance fitness, entry "S2Q" : -0.167

Form field abundance fitness, entry "G14P" : -0.378

Form field abundance fitness, entry "V5A" : -0.088

Form field abundance fitness, entry "T36A" : -0.377

Form field abundance fitness, entry "Q46Y" : -0.221

Form field abundance fitness, entry "M17R" : -0.279

Form field abundance fitness, entry "D4N" : 0.053

Form field abundance fitness, entry "A43F" : -0.016

Form field abundance fitness, entry "Y3H" : 0.013
